Target: T1, RSV F glycoprotein (NUF4) (respiratory syncytial virus)
T1 chain 1: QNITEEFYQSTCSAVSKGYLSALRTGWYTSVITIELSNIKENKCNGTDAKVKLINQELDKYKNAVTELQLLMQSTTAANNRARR
T1 chain 2: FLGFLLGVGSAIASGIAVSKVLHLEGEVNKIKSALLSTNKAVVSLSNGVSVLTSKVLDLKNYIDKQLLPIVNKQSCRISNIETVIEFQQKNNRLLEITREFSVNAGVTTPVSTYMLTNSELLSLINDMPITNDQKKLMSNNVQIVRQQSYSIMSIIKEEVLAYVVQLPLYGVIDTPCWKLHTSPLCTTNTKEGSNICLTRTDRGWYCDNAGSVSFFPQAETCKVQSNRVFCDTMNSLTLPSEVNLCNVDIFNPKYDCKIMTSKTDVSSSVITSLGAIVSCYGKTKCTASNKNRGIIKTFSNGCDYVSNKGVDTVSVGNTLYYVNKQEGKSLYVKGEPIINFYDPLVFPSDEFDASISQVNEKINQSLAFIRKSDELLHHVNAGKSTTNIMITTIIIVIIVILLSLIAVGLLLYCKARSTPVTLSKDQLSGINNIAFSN
Test: BIAcore, mAb vs NUF4 (2:1)
Each entry below lists one item and its recorded number in parentheses after KD (fold against SYNAGIS = 1) value.
property: number in parentheses after KD (fold against SYNAGIS = 1) (fold)

binder: A13c4 (monoclonal antibody) (antibody, V domains shown, mAb with framework and constant regions of SYNAGIS) VH: QVTLRESGPALVKPTQTLTLTCTFSGFSLSTAGMSVGWIRQPPGKALEWLADIWWDGKKSYNPSLKDRLTISKDTSKNQVVLKVTNMDPADTATYYCARDMIFNFYFDVWGQGTTVTVSS VL: DIQMTQSPSTLSASVGDRVTITCSLSSRVGYMHWYQQKPGKAPKLLIYDTMYQSSGVPSRFSGSGSGTEFTLTISSLQPDDFATYYCFQGSGYPFTFGGGTKVEIK
unitName: fold
numericResult: 446
//
binder: A1e9 (monoclonal antibody) (antibody, V domains shown, mAb with framework and constant regions of SYNAGIS; also called Ale9) VH: QVTLRESGPALVKPTQTLTLTCTFSGFSLSTPGMSVGWIRQPPGKALEWLADIWWDGKKHYNPSLKDRLTISKDTSKNQVVLKVTNMDPADTATYYCARDMIFNWYFDVWGQGTTVTVSS VL: DIQMTQSPSTLSASVGDRVTITCSLSSRVGYMHWYQQKPGKAPKLLIYDTFKLSSGVPSRFSGSGSGTEFTLTISSLQPDDFATYYCFQGSGYPFTFGGGTKVEIK
unitName: fold
numericResult: 74
//
binder: A17d4 (monoclonal antibody) (antibody, V domains shown, mAb with framework and constant regions of SYNAGIS) VH: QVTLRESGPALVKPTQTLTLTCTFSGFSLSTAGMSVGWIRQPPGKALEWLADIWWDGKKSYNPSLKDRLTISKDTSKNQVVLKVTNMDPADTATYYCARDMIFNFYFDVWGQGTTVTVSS VL: DIQMTQSPSTLSASVGDRVTITCLPSSRVGYMHWYQQKPGKAPKLLIYDTMYQASGVPSRFSGSGSGTEFTLTISSLQPDDFATYYCFQFSGYPFTFGGGTKLEIK
unitName: fold
numericResult: 281

Values compiled from patent US20030091584A1.
